# target desc: T1, Cynomolgus IL-13Rα1 expressed in transfected Ba/F3 cells (Cynomolgus, UniProt A0A7N9D0M5 20-425)
# T1 construct: Stably transfected murine Ba/F3 cells
# T1 sequence: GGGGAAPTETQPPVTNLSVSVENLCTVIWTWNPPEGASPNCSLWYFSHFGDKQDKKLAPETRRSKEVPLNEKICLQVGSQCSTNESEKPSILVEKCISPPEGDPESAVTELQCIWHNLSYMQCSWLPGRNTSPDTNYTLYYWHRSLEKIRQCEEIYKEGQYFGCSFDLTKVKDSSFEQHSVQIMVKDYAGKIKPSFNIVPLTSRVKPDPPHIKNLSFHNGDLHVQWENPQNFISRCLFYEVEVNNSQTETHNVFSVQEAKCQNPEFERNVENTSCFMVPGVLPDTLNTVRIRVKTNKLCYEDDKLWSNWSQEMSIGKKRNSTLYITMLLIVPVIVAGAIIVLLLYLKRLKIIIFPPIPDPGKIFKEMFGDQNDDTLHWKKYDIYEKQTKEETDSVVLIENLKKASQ
# assay protocol: FACS on Ba/F3 cells transfected with Cynomolgus IL-13Rα1, 10 µg/ml
metric: MFI Ba/F3_Cyno_IL-13Rα1 (MFI)
All answers are understood in MFI, so give the number only.

>  <binder>
HuMab LC5002-003 (antibody, V domains shown, Human IgG1 kappa from a HuMab mouse hybridoma; Only the variable domains are tied to this antibody; also called LC50002-003; hu-MAB<h-IL-13Ralpha>LC.5002-003 (DSM ACC2710)) VH: EVQLLESGGDLIQPGGSLRLSCAASGFTFNIYAMNWVRQAPGKGLEWVSVISGRGITTYYADSVKGRFTISRDNSKNTLYLQMDSLRAEDTAVYYCAKGSSYWTDFDYWGQGTLVTVSS VL: DIQMTQSPSSLSASVGDRVTITCRASQGISSWLAWYQQKPEKAPKSLIYAASSLQSGVPSRFSGSGSGTDFTLTISSLQPEDFATYYCQQYNSYPWTFGQGTKVEIK

>  <observed value>
82.4

$$$$
>  <binder>
HuMab LC5002-007 (antibody, human IgG1, V domains shown, Human IgG1 kappa from a HuMab mouse hybridoma; Only the variable domains are tied to this antibody; also called hu-MAB<h-IL-13R alpha>LC.5002-007 (DSM ACC2712)) VH: QVQLVQSGAEVKKPGSSVKVSCKVSGGTFSSYAFSWVRQAPGQGLEWMGRIIPILGRTNYAQKFQGRVTITADKSTSTAYMEVSSLRSEDTAVYYCAREGETLDYFYYGMDVWGQGTTVTVSS VL: EIVLTQSPGTLSLSPGERATLSCRASQSVSSSYLAWYQQKPGQAPRLLIYGASSRAIGIPDRFSGSGSGTDFTLTISRLEPEDFAVYYCQHYGSSLTFGGGTKVEIK

>  <observed value>
19

$$$$

Now look at this one.
HuMab LC5002-005 (antibody, V domains shown, Only the variable domains are tied to this antibody; also called hu-MAB<h-IL-13Ralpha>LC.5002-005 (DSM ACC2711)) VH: EVQVLDSGGGLVQPGGSLRLSCTASGFTFRLYTMSWVRQTPGRGLEWVSGISGSGLSTYFADSVKGRFTISRDNSKNTVYLQMNSLRAEDTAVYYCAKEGDWIYFDSWGQGTLVIVSS VL: DIQMTQSPSSLSASVGDRVTITCRASQGISSWLAWYQQKPEKAPKSLIYAASSLQSGVPSRFSGSGSGTDFTLTISSLQPEDFATYYCQQYNSHPPTFGQGTKLEIK has a reported MFI Ba/F3_Cyno_IL-13Rα1 of 102
